condition-info: 9 K; 101.33 kPa; Crystal; relaxation calorimetry
Label fulfilled when molar entropy >= 0.2 J/K/mol; otherwise not fulfilled.

# count of solved cases: 5
molecule=OC[C@@H](O)[C@H](O)[C@@H](O)CO group_label=fulfilled
molecule=OC[C@@H](O)C(O)[C@H](O)CO group_label="not fulfilled"
molecule="OC[C@H](O)C(O)[C@@H](O)CO [L-(-)-arabitol]" group_label="not fulfilled"
molecule="O[C@H]1[C@H](O)[C@@H](O)[C@H](O)[C@@H](O)[C@H]1O [cis-1,2,3,5-trans-4,6-cyclohexanehexol]" group_label=fulfilled
molecule=OC[C@@H](O)[C@@H](O)CO group_label=fulfilled

Turning now to a further molecule:
Req: Does the reported molar entropy for OC[C@@H](O)[C@@H](O)[C@H](O)[C@H](O)CO fall at or above the 0.2 J/K/mol mark?
Resp: fulfilled
